molecular target: T1, mouse programmed cell death protein 1 Fc fusion protein (mPD-1-Fc), mPD-1 C60S (aa 25-167) (Mus musculus, UniProt Q02242, stabilised); assay: SPR; Carterra LSA; Fab from the ammonium sulfate precipitate of the culture supernatant immobilised on a NiHC200M chip; hPD-1 (1-1024 nM) or mPD-1-Fc (4-1024 nM) as analyte, fourfold dilution series, no regeneration; HBS-EP pH 7.4, 25 °C; medians over the spots of a construct, KD = koff/kon; conditions: one partner purified
T1 construct: not cleaved; source: Expi293F, purified (Protein A, SEC; dimeric fraction); not shown: Fc (human), C-terminal, kept
// reported kon per item
Test readout: kon (M⁻¹ s⁻¹)

>>> result_value("toripalimab Fab H.N61Y (Fab, V domains shown, heavy chain of Sm3 with this change; numbers count from the chain's first residue; as the light chain of Sm3; source: Brevibacillus, culture supernatant (ammonium sulfate precipitate); not shown: 6xHis, C-terminal, kept; 6xHN, C-terminal, kept) VH: QGQLVQSGAEVKKPGASVKVSCKASGYTFTDYEMHWVRQAPIHGLEWIGVIESETGGTAYYQKFKGRVTITADKSTSTAYMELSSLRSEDTAVYYCAREGITTVATTYYWYFDVWGQGTTVTVSS VL: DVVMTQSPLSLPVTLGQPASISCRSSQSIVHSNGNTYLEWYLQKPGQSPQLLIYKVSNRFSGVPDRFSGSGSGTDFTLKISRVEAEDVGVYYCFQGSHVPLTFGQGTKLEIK")
38100
>>> result_value("toripalimab Fab H.Y32A (Fab, V domains shown, heavy chain of Sm3 with this change; numbers count from the chain's first residue; as the light chain of Sm3; source: Brevibacillus, culture supernatant (ammonium sulfate precipitate); not shown: 6xHis, C-terminal, kept; 6xHN, C-terminal, kept) VH: QGQLVQSGAEVKKPGASVKVSCKASGYTFTDAEMHWVRQAPIHGLEWIGVIESETGGTAYNQKFKGRVTITADKSTSTAYMELSSLRSEDTAVYYCAREGITTVATTYYWYFDVWGQGTTVTVSS VL: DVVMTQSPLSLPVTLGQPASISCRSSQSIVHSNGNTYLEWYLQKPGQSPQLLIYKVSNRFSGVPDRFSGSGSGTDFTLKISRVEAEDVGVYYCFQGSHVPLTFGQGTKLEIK")
46900

Origin of values: paper PMC10663500
